- Tested Target: human URAT1 (hURAT1 WT) (Homo sapiens, UniProt Q96S37)
- Assay Text: URAT1 uric acid transport activity assay
- Format: cell-based
- Experimental Context: hURAT1 WT; HEPES pH 7.3; 100 μM 14C-uric acid
Property: pIC50
pIC50 is a log-scale quantity: -log10 of the concentration expressed in molar.

QUERY: Which pIC50 value belongs to O=C1C(CC[S+]([O-])c2ccccc2)C(=O)N(c2ccccc2)N1c1ccccc1 (stereo not shown) ?
RESULT: 4.49

###

- Tested Target: h-S35N hURAT1 point mutant (Homo sapiens, UniProt Q96S37, S35N)
- Sequence (Q96S37 1-553 S35N): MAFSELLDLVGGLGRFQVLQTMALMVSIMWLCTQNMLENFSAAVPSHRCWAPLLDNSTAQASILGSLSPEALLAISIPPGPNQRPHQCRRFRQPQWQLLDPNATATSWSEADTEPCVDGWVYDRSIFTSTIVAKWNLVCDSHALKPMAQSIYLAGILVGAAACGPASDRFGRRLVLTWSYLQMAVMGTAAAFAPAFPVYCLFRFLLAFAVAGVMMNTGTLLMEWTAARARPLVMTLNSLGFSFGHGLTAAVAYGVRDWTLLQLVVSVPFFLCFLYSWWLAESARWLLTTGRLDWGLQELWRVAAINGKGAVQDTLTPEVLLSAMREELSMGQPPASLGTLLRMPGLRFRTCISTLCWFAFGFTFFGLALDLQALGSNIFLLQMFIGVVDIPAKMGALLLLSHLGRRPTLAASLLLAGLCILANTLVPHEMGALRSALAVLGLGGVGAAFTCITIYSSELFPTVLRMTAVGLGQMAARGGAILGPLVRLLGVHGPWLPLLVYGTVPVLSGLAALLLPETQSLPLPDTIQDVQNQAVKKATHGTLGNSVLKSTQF
- Assay Text: URAT1 uric acid transport activity assay
- Type: cell-based
- Experimental Context: h-S35N; MES pH 5.5; 100 μM 14C-uric acid
- Procedure: hURAT1 (GenBank BC053348.1) and rURAT1 (NCBI NM_001034943.1) genes were purchased from Origene Technologies, Inc. and subcloned into pCMV6/neo using NotI, creating pCMV6/neo-hURAT1 and pCMV6/neo-rURAT1. […] Compounds were serially diluted into assay buffer and added to the cells for 5 minutes prior to addition of radiolabelled uric acid substrate. […] Each treatment was measured in triplicate. […]
Property: IC50

QUERY: Any idea what IC50 was measured for `O=c1[nH]c(=O)c2[nH]c(=O)[nH]c2[nH]1` ?
RESULT: 507 µM

###

- Tested Target: h-r TM7 URAT1 chimera (Homo sapiens, UniProt Q96S37, C351F/F365Y/T354M)
- Sequence (Q96S37 1-553 C351F/T354M/F365Y): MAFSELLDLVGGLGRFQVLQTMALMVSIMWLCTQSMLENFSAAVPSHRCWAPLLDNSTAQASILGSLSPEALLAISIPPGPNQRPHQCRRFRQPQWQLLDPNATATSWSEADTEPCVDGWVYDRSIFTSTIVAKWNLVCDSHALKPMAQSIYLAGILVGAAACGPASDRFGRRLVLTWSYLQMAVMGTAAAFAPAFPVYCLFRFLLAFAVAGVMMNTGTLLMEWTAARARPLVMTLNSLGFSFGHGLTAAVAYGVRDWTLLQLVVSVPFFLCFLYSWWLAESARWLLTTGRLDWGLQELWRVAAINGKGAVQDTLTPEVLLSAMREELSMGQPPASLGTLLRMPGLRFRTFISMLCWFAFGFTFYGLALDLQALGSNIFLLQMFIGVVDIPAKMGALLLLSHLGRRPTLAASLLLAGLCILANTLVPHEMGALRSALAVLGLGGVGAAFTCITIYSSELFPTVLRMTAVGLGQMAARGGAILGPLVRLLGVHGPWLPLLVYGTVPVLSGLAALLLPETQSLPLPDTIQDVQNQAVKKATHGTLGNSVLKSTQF
- Assay Text: URAT1 uric acid transport activity assay
- Experimental Context: h-r TM7; HEPES pH 7.3; 100 μM 14C-uric acid
Property: IC50 (µM)
Give your result in µM as a bare value.

QUERY: For O=C1C(CC[S+]([O-])c2ccccc2)C(=O)N(c2ccccc2)N1c1ccccc1 (stereo not shown) [sulfinpyrazone] , what is its reported IC50?
RESULT: 254
